Below, each entry is listed alongside its reported melting point.
endpoint.label: melting point

compound	assay.value
N#CC[C@H]1CCn2c(cc3ccccc32)C1	100 to 101 °C
O=C(O)CCCN1C(=O)C(c2ccccc2)SC1=S (stereo not given)	138 to 139 °C
CN1C(=O)C(NC(=O)OCc2ccccc2)N=C(c2ccccc2)c2ccccc21 (stereo not given)	78 to 80 °C
CCOC(=O)Nc1cc([N+](=O)[O-])ccc1F	90 to 92 °C
Cc1ccc(Br)cc1NS(=O)(=O)c1ccccc1C(=O)O	274 to 276 °C
CCOC(=O)c1cn(C)nc1OCc1ccc(OCc2nc(-c3ccco3)oc2C)c(OC)c1	117 to 118 °C
c1ccc2c(c1)nnn2C(n1nnc2ccccc21)n1nnc2ccccc21	194 to 195 °C
O=S(=O)(O)c1ccc(Nc2ncnc3cc(Cl)ccc23)cc1	> 300 °C
COC(=O)CCCc1cc2nc(Cl)ccc2n1S(=O)(=O)c1ccc(-n2cccn2)cc1	122 to 124 °C
Cc1cc(C(O)=S)cc(N)c1Cc1ccccc1	153 to 154 °C

---

Below, each entry is listed alongside its reported melting point.
endpoint.label: melting point

compound	endpoint.label	assay.value
Cc1cccc(-c2nc(C)cc(NC3CCCCC3)n2)n1	melting point	59.6 to 65 °C
CCOC(=O)c1cnc(-c2cccs2)s1	melting point	61 to 62 °C
N#CC(NC(=O)c1cccn2ccnc12)c1ccco1 (stereo not given)	melting point	149 to 151 °C
CCN(CC)C(=O)c1ccc(Nc2nc(OCC3CCCCC3)c3nc[nH]c3n2)cc1	melting point	138 to 140 °C
CCCc1nc(SC)nc(O)c1Cc1ccc(-c2ccccc2C#N)cc1	melting point	218 °C
Nc1cc(Oc2ccc3c(c2)OCCN3)ncn1	melting point	140 to 141 °C
Cc1cc2cc(CN3CCC(C(N)=O)CC3)cnc2cc1NC(=O)c1ccc(-c2ccc(F)cc2)cc1	melting point	265 °C
C=CCC12CC(=O)N(C)C1(O)CCc1ccc(OC)cc12 (stereo not given)	melting point	146 to 149 °C
O=C(O)CCCOc1cccc2c1Cc1sc(SCC(c3ccccc3)c3ccccc3)nc1-2	melting point	137 to 138 °C
N=C(NCCCn1cc(C2=CC(=O)NC2=O)c2ccccc21)c1ccc(O)cc1	melting point	> 300 °C

---

Below, each entry is listed alongside its reported melting point.

compound	melting point
CC(C)(C)CN1C(=O)CC(=O)N(c2ccccc2Cl)c2cc(Cl)ccc21	245 to 246 °C
O=C(O)c1cnn2c(C(F)(F)F)cc(-c3ccc(Cl)c(Cl)c3)nc12	264 °C
O=C(Cl)c1ccccc1Nc1cccc([N+](=O)[O-])c1	141 to 145 °C
CCc1ccc(C2CCC(c3ccc(O)cc3)(c3ccc(O)cc3)CC2)cc1	187 to 188 °C
Cc1oc2cc(CCl)ccc2c1C	63 to 65 °C
CNC1C(O)CC2C3CCC4CC(OC(C)=O)CCC4(C)C3CCC21C (stereo not given)	197 to 199 °C
CC(C)(C)OC(=O)NCC(=O)N1CCC(=C2c3ccc(Cl)cc3CCc3cccnc32)CC1	209 to 211 °C
O=C(CNC(=O)c1ccc([N+](=O)[O-])c(I(=O)=O)c1)OCc1ccccc1	196 to 198 °C
CC1(C)C(=O)C(c2ccc(S(C)(=O)=O)cc2)=C1c1ccc(S(C)(=O)=O)cc1	212 °C
O=C(CC12CC3CC(CC(C3)C1)C2)N1CCc2sccc2C1	121 to 125 °C

The origin of these recorded values is a melting point compilation (Tetko et al.; mined from patent text by program, amines drawn as free bases though some values may be those of a salt).
